# Target system: GRID2IP_2, A4D2P6
# Sequence (A4D2P6 272-370): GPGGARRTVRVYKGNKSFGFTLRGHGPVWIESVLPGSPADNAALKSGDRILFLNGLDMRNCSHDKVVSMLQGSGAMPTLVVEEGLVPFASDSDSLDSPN
# Experimental details: holdup assay
# Parameters: key: below the threshold = too weak to quantify, mostly under pKd 3.1 to 4
# Assay context: plain residues with an end cap or a label only (N-terminal biotin on a linker: ado-ado)
Metric name: pKd

>>> measured_value("PRISRSQSEL [CCDC134, Q9H6E4]")
3.61
>>> measured_value("TPPAAKKSRI [BAZ1A, Q9NRL2]")
4.42
>>> measured_value("GQEEQVTTRL [TRPC5, Q9UL62]")
4.44
>>> measured_value("YLEPVLSSEL [ATP2A2, P16615;P16615-3]")
4.22
>>> measured_value("LPAHHNATRL [SLC34A1, Q06495;Q06495-1]")
4.13
